- TARGET SYSTEM: T1, Human MAGEB2 (Melanoma-associated antigen B2) (human, UniProt O15479 1-319)
- T1 construct: Intracellular antigen detected by IHC in FFPE material: CHO cells transfected with human MAGEB2 (mCherry vector with Myc/DDK tags, or ORF without tags)
- T1 sequence: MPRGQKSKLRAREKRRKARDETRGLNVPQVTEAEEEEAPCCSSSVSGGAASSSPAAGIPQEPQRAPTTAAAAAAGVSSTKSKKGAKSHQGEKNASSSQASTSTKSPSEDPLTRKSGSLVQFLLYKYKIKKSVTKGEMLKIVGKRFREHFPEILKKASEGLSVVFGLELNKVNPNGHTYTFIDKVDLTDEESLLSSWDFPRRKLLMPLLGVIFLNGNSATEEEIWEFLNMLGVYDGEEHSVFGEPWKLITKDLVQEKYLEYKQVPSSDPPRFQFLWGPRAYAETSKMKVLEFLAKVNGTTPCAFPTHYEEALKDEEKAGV
- TEST: IHC on FFPE U20S cells (endogenous MAGEB2)
Answer each item with its documented IHC Intensity.
Numbers only.

Take a look at these entries with their results.
- BINDER: "4G17 (antibody, IgG1, V domains shown, Rabbit monoclonal IgG1; Tested as supernatant and as small batch purified antibody; also called MAGE-B2 (4G17); anti-MAGEB2 antibody 4G17) VH: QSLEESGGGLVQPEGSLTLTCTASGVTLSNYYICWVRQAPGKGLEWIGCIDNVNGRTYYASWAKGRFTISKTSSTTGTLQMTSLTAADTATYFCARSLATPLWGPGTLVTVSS VL: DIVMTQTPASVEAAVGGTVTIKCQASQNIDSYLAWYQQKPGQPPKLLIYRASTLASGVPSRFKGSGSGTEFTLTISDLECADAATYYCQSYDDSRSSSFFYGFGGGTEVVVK"
  IHC Intensity: 2
- BINDER: "1I14 (antibody, V domains shown, also called MAGE-B2 (1i14)) VH: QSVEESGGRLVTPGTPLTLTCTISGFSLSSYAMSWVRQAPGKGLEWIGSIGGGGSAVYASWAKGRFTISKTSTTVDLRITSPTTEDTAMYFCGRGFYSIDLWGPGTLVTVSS VL: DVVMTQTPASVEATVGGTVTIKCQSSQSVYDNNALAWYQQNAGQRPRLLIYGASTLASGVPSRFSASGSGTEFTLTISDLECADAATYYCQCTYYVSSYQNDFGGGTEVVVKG"
  IHC Intensity: 2
- BINDER: "1J15 (antibody, IgG1, V domains shown, Rabbit monoclonal IgG1; Tested as supernatant and as small batch purified antibody; also called MAGE-B2 (IJ15); anti-MAGEB2 antibody 1J15) VH: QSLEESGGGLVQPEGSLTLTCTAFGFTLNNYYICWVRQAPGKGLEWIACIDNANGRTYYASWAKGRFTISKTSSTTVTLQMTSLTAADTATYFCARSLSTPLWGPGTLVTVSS VL: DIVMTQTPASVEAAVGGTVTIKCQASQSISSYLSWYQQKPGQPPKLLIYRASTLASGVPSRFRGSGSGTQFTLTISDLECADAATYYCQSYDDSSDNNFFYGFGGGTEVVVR"
  IHC Intensity: 1

// switching to the query binder
[ask] Look up IHC Intensity of 1C3 (antibody, V domains shown, also called MAGE-B2 (IC3); anti-MAGEB2 antibody 1C3) VH: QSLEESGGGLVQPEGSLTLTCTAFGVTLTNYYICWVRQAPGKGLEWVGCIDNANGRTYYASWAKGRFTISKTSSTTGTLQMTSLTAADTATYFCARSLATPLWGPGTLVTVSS VL: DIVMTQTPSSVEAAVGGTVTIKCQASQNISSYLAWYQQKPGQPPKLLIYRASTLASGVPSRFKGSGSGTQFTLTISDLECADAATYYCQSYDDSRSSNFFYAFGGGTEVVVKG and report it.
[reply] 2

Source of measurements: patent US20250282887A1
